# Tested on: KB
# EXPERIMENT SUMMARY: Cytotoxicity against human KB cells
# Type: functional
# PARTICULARS: read-out: ED50 (the source's name)
Measured EC50 of individual entries

{"MOLECULE": "CCC[C@@H](O)/C=C/C=C/C=C/C#CC#CCCCO", "READOUT UNIT": "µg/mL", "VALUE OPERATOR": "=", "EC50": 2}
{"MOLECULE": "C=CC(=O)C#CC#C/C=C\\C(=O)CCCCCCC", "READOUT UNIT": "µg/mL", "VALUE OPERATOR": ">", "EC50": 10}
{"MOLECULE": "COc1cc([C@@H]2c3cc4c(cc3[C@@H](O[C@@H]3O[C@@H]5CO[C@@H](C)O[C@H]5[C@H](O)[C@H]3O)[C@H]3COC(=O)[C@H]23)OCO4)cc(OC)c1O [ETOPOSIDE]", "READOUT UNIT": "µg/mL", "VALUE OPERATOR": "=", "EC50": 0.1}
{"MOLECULE": "C=CC(C#CC#C/C=C\\C(CCCCCCC)OC(C)=O)OC(C)=O (stereo not given) [SESELIDIOL DIACETATE]", "READOUT UNIT": "µg/mL", "VALUE OPERATOR": "=", "EC50": 4}
{"MOLECULE": "C=CC(O)C#CC#C/C=C\\C(O)CCCCCCC (stereo not given)", "READOUT UNIT": "µg/mL", "VALUE OPERATOR": "=", "EC50": 1}

###

# Tested on: HCT-8
# EXPERIMENT SUMMARY: Cytotoxicity against human HCT8 cells
# Format: functional
# PARTICULARS: read-out: ED50 (the source's name)
Measured EC50 of individual entries

{"COMPOUND": "C=CC(O)C#CC#C/C=C\\C(O)CCCCCCC (centres undefined) [SESELIDIOL]", "SUBJECT OF TEST": "HCT-8", "EC50 (mg/L)": 10}
{"COMPOUND": "C=CC(=O)C#CC#C/C=C\\C(=O)CCCCCCC", "SUBJECT OF TEST": "HCT-8", "EC50 (mg/L)": 3.7}
{"COMPOUND": "C=CC(C#CC#C/C=C\\C(CCCCCCC)OC(C)=O)OC(C)=O (centres undefined) [SESELIDIOL DIACETATE]", "SUBJECT OF TEST": "HCT-8", "EC50 (mg/L)": 7.8}
{"COMPOUND": "COc1cccc2c1C(=O)c1c(O)c3c(c(O)c1C2=O)C[C@@](O)(C(=O)CO)C[C@@H]3O[C@H]1C[C@H](N)[C@H](O)[C@H](C)O1.Cl [DOXORUBICIN HYDROCHLORIDE]", "SUBJECT OF TEST": "HCT-8", "EC50 (mg/L)": 0.3}

###

# Tested on: P388
# EXPERIMENT SUMMARY: Cytotoxicity against mouse P388 cells
# Format: functional
# PARTICULARS: read-out: ED50 (the source's name)
MEASURED PARAMETER: EC50 (µg/mL)

{"MOLECULE": "COc1cc([C@@H]2c3cc4c(cc3[C@@H](O[C@@H]3O[C@@H]5CO[C@@H](C)O[C@H]5[C@H](O)[C@H]3O)[C@H]3COC(=O)[C@H]23)OCO4)cc(OC)c1O [ETOPOSIDE]", "SUBJECT OF TEST": "P388", "READOUT UNIT": "µg/mL", "VALUE OPERATOR": "=", "READOUT VALUE": 2.6}
{"MOLECULE": "C=CC(C#CC#C/C=C\\C(CCCCCCC)OC(C)=O)OC(C)=O (centres undefined) [SESELIDIOL DIACETATE]", "SUBJECT OF TEST": "P388", "READOUT UNIT": "µg/mL", "VALUE OPERATOR": "=", "READOUT VALUE": 5.2}
{"MOLECULE": "C=CC(=O)C#CC#C/C=C\\C(=O)CCCCCCC", "SUBJECT OF TEST": "P388", "READOUT UNIT": "µg/mL", "VALUE OPERATOR": ">", "READOUT VALUE": 10}
{"MOLECULE": "C=CC(O)C#CC#C/C=C\\C(O)CCCCCCC (centres undefined)", "SUBJECT OF TEST": "P388", "READOUT UNIT": "µg/mL", "VALUE OPERATOR": "=", "READOUT VALUE": 4.9}
